System: renal progenitor cells
Assay: In situ hybridization for lhx1a expression in 10-somite embryos (renal progenitor cell expansion)
Assay type: in vivo
Conditions: Danio rerio; first pass EC50 from percent expansion (Excel trendline); average where several experiments
Measured EC50, listed per entry for reference.
Quick note: give the figure in µM, leave out the unit.

- compound: "Nc1ccccc1NC(=O)CCCCCSc1ccc(F)cc1"
  EC50 / µM: 0.79

Attention now turns to another entry.
Find the measured EC50 of O=C(CCCSc1ccccc1)NO [UPHD-00023, N-hydroxy- 4(phenyl- sulfanyl)butanamide] and report it.
1.3

* * *

Test system: renal progenitor cells
Test: In situ hybridization for lhx1a expression in 10-somite embryos (renal progenitor cell expansion); on Lhx1a expansion caused by analog treatment, 400 nM: key: effective (+); partially effective (+/−); ineffective (−); Analogs that killed all embryos at a given concentration before reaching 10 somites are listed as XX
Type: in vivo
Conditions: 400 nM from 2 hpf, 10-somite embryos
recordedEndpoint: Lhx1a expansion caused by analog treatment, 400 nM

- compound: "COC(=O)CCCSc1ccc(C)cc1"
  targetOrTestSystem: "renal progenitor cells"
  result: "−"
- compound: "O=C(CCCSc1ccc(F)cc1)NO"
  targetOrTestSystem: "renal progenitor cells"
  result: "+/−"
- compound: "COC(=O)CCCSc1ccc(OC)cc1"
  targetOrTestSystem: "renal progenitor cells"
  result: "+/−"
- compound: "Cc1ccc(SCCCC(=O)NO)cc1"
  targetOrTestSystem: "renal progenitor cells"
  result: "−"
- compound: "COC(=O)CCCSc1ccc(F)cc1"
  targetOrTestSystem: "renal progenitor cells"
  result: "+/−"

Specify Lhx1a expansion caused by analog treatment, 400 nM for CCC(=O)CCCCC[C@@H]1NC(=O)[C@H]2CCCCN2C(=O)[C@H]([C@@H](C)CC)NC(=O)[C@H](Cc2cn(OC)c3ccccc23)NC1=O [apicidin, reference compound] and stop.
+/−

Data origin: patent US10160705B2
